Experiment: qHTS for Inhibitors of the Functional Ribonucleoprotein Complex (vRNP) of Lymphocytic Choriomeningitis Arenaviruses (LCMV): Viability assay - alamar blue signal for LCMV Primary Screen (AID 1347085); also: nearly all actives have a fitted effect of over 80% in size
Settings: alamar blue viability counter-screen, LCMV vRNP screen cells; series mostly up to 57.5 µM
Inconclusive results are not listed. Activity calls are given as the source filed them. Calls follow the shape of the full dose curve; tested in HEK293 reporter line.
Outcome codes: t for active, f for inactive

>>> discrete_label("CC(=O)SCC(Cc1ccccc1)C(=O)NCC(=O)OCc1ccccc1 (centres undefined)")
"t"
>>> discrete_label("COc1ccc2cc([S+]([O-])Cc3ncc(C)c(OC)c3C)nc2c1")
"f"
>>> discrete_label("O=C1OC(=O)C2C3CCC(O3)C12 (centres undefined)")
"t"
>>> discrete_label("CCc1cc(C(C)=NOCc2ccc(C3CCCCC3)c(C(F)(F)F)c2)ccc1CN1CC(C(=O)O)C1")
"f"
>>> discrete_label("CC(C)(O)[C@@H]1CC(=O)[C@]2(C)[C@H](CC[C@@]3(C)[C@H](c4ccoc4)OC(=O)[C@H]4O[C@]432)[C@@]1(C)/C=C\\C(=O)O")
"f"
>>> discrete_label("C[C@]12CCC(=O)C=C1CC[C@@H]1[C@H]2[C@@H](O)C[C@@]2(C)[C@H]1CC[C@]2(O)C(=O)CO")
"f"
>>> discrete_label("Nc1nc(F)nc2c1ncn2[C@@H]1O[C@H](COP(=O)(O)O)[C@@H](O)[C@H]1O")
"f"
>>> discrete_label("O=C(O)[C@H]1O[C@H](Oc2cc3oc(-c4ccccc4)cc(=O)c3c(O)c2O)[C@H](O)[C@@H](O)[C@H]1O")
"f"
>>> discrete_label("c1ccc2nc(-c3ccc4c(c3)OCO4)ccc2c1")
"f"
>>> discrete_label("CC(C)(C=O)Cc1cc(C(C)(C)C)c(O)c(C(C)(C)C)c1")
"f"
>>> discrete_label("COc1ccc(C(=O)OC2C[C@H]3CC[C@@H](C2)N3O)cc1OC (some centres undefined)")
"f"
>>> discrete_label("CC1(C)CCc2c([nH]c3ccccc3c2=O)O1")
"f"
>>> discrete_label("N[C@H](C(=O)O)c1ccc(O)c(C(=O)O)c1")
"f"
>>> discrete_label("O=c1[nH]c(=O)c2nc3ccccc3nc2[nH]1")
"f"
>>> discrete_label("CCCNS(=O)(=O)Nc1ncnc(OCCOc2ncc(Br)cn2)c1-c1ccc(Br)cc1")
"f"
>>> discrete_label("CCOc1ccc(O)cc1")
"f"
>>> discrete_label("CC1(C)C=Cc2c(c3c(c4c(=O)c(-c5ccc(O)cc5)coc24)OC(C)(C)CC3)O1")
"f"
>>> discrete_label("CC1(C)CC(=O)c2cc(O)ccc2O1")
"f"
>>> discrete_label("CC(C)Cn1c(=O)n(C)c(=O)c2[nH]cnc21")
"f"
>>> discrete_label("Nc1nc2c(nc(Br)n2C2OC3COP(=O)(O)O[C@@H]3C2O)c(=O)[nH]1 (some centres undefined)")
"f"
>>> discrete_label("C=C1CCC(OC(C)=O)C2(C)CCC3C(C)C(=O)OC3C12O (centres undefined)")
"f"
>>> discrete_label("O=C(c1ccc(F)cc1)N1CCC[C@H](c2nc(-c3ccc(F)cc3)no2)C1")
"f"
>>> discrete_label("CC(=O)N[C@H]1[C@@H]([C@H](O)[C@H](O)CO)OC(C(=O)O)=C[C@@H]1N=C(N)N")
"f"
>>> discrete_label("CC[N+](CC)(CC)CC(=O)Nc1c(C)cccc1C")
"f"
>>> discrete_label("C=C/C(C)=C/[C@@]1(C)SC(=O)C(C)=C1O")
"f"
>>> discrete_label("c1ccc(Nc2ccc3ccccc3c2)cc1")
"f"
>>> discrete_label("CC(=O)OCC1=C(C(=O)O)N2C(=O)[C@@H](NC(=O)Cc3ccccc3)[C@H]2SC1")
"f"
>>> discrete_label("NCCS(=O)O")
"f"
>>> discrete_label("CC(C)c1cccc(O)c1")
"f"
>>> discrete_label("CNC1[C@H](O)C(O[C@@H]2C(O)C(O[C@H]3O[C@H]([C@@H](C)NC)CC[C@H]3N)[C@@H](N)C[C@H]2N)OC[C@]1(C)O (some centres undefined)")
"f"
>>> discrete_label("C[C@H](CCC(=O)O)[C@H]1CCC2C3CC[C@@H]4C[C@H](O)CC[C@]4(C)C3CC[C@@]21C (some centres undefined)")
"f"
>>> discrete_label("CC(=O)O[C@H]1Cc2ccccc2N(C(N)=O)c2ccccc21")
"f"
>>> discrete_label("CC1=C(C=O)C(C)(C)CCC1")
"f"
>>> discrete_label("O=C1c2c(O)cc(O)cc2O[C@@]12c1c(cc(O)c3c1O[C@H](c1ccc(O)cc1)[C@@H](O)C3)O[C@@H]2c1ccc(O)cc1")
"f"
>>> discrete_label("N#CC1(c2ccc(NC(=O)c3cccnc3NCc3ccncc3)cc2)CCCC1")
"f"
>>> discrete_label("O=C(O)CCc1ccccc1")
"f"
>>> discrete_label("CC(=O)N[C@@H](Cc1c[nH]c2ccccc12)C(=O)OCc1cc(C(F)(F)F)cc(C(F)(F)F)c1")
"f"
>>> discrete_label("NC(=O)c1cccc2[nH]c(-c3ccc([C@H]4CCCN4)cc3F)nc12")
"f"
>>> discrete_label("C[C@@H]1CC[C@@]2(OC1)OC1CC3C4CC=C5CC(O)CCC5(C)C4CCC3(C)C1[C@@H]2C (some centres undefined)")
"f"
>>> discrete_label("CC(C)CNC(=O)/C=C/C=C/CCCC/C=C/c1ccc2c(c1)OCO2")
"f"
>>> discrete_label("COc1ccc(S(=O)(=O)Nc2cc(-c3c(O)ccc4ccccc34)c(O)c3ccccc23)cc1")
"f"
>>> discrete_label("CC(C)=CCCC(C)CC=O (centres undefined)")
"f"
>>> discrete_label("COc1cc(O)c2c(=O)c3c(OC)c(O)ccc3oc2c1")
"f"
>>> discrete_label("NCCCC(=O)O")
"f"
